Where these numbers come from: patent US20260256789A1

molecular target: KRAS G12C (GMPPNP-loaded) and cRAF Ras-binding domain (Homo sapiens, UniProt P01116, C118S/C51S/C80L/G12C); construct: truncated version comprising amino acids 1-169; assay: Inhibition of KRAS G12C and cRAF binding (AlphaScreen); conditions: KRAS G12C preloaded with GTP analogue GMPPNP, 2 hours preincubation
Sequence (P01116 1-169 isoform P01116-2 G12C/C51S/C80L/C118S): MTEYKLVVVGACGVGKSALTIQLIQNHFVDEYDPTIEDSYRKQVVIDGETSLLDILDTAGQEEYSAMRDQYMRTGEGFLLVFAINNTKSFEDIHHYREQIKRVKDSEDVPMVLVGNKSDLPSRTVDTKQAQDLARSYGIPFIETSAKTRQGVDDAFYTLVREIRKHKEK
// reported IC50 per item

Worked examples follow.
COMPOUND	IC50
Cc1noc(/C=C/C(=O)N2CC[C@@H](N(C)c3nc(OC[C@@]45CCCN4C[C@H](F)C5)nc4c3C[C@H](C)[C@@H](c3nc(N)cc(C)c3C(F)(F)F)C4)C2)n1	100 to 500 nM
C=CC(=O)N1CC[C@@H](N(C)c2nc(OC[C@@]34CCCN3C[C@H](F)C4)nc3c2CC(C)C(c2nc(N)cc(C)c2C(F)(F)F)C3)C1 (some centres unmarked) [Example 68]	100 to 500 nM
Cc1ncc(F)c(/C=C/C(=O)N2CC[C@@H](N(C)c3nc(OC[C@@]45CCCN4C[C@H](F)C5)nc4c(F)c(-c5cccc(Cl)c5C5CC5)ncc34)C2)n1	100 to 500 nM
CN(c1nc(OC[C@@]23CCCN2C[C@H](F)C3)nc2c(F)c(-c3cccc(Cl)c3C3CC3)ncc12)[C@@H]1CCN(C(=O)C#C[C@]2(C)CCCN2)C1	< 10 nM

Turning now to a further record.
Identify IC50 associated with the compound CN(c1nc(OC[C@@]23CCCN2C[C@H](F)C3)nc2c(F)c(-c3cccc(Cl)c3C3CC3)ncc12)[C@@H]1CCN(C(=O)C#CCN2CC3CCC(C2)O3)C1 10 to 100 nM

* * *

target: KRAS G12C (GMPPNP-loaded) and cRAF Ras-binding domain (Homo sapiens, UniProt P01116, C118S/C51S/C80L/G12C); construct: truncated version comprising amino acids 1-169; test: Inhibition of KRAS G12C and cRAF binding (AlphaScreen); details: KRAS G12C preloaded with GTP analogue GMPPNP, 2 hours preincubation
QUANTITY KIND: IC50

Worked examples follow.
>>> df
                                   molecule     data_value
0  Cc1cc(N)nc(N2CCc3c(nc(OC[C@@]45CCCN4C[C@H](F)C5)nc3N(C)[C@@H]3CCN(C(=O)/C=C/c4nc(C(C)C)no4)C3)C2)c1C(F)(F)F       ≥ 0.5 µM
1  C=CC(=O)N1CC(CN(C)c2nc(OC[C@@]34CCCN3C[C@H](F)C4)nc3c2CC(C)C(c2nc(N)cc(C)c2C(F)(F)F)C3)C1 (stereo partly drawn)       ≥ 0.5 µM
2  Cc1noc(/C=C/C(=O)N2CC[C@@H](N(C)c3nc(OC[C@@]45CCCN4C[C@H](F)C5)nc4c(F)c(-c5nc(N)cc(C)c5C5CC5)ncc34)C2)n1      < 0.01 µM
3  C=CC(=O)N1CC[C@@H](N(C)c2nc(OC[C@@]34CCCN3C[C@H](F)C4)nc3c(F)c(-c4nc(N)ccc4C(F)(F)F)ncc23)C1  0.1 to 0.5 µM
4  Cc1cc(N)nc(-c2ncc3c(N(C)[C@@H]4CCN(C(=O)/C=C/CN5CCOCC5)C4)nc(OC[C@@]45CCCN4C[C@H](F)C5)nc3c2F)c1C(F)(F)F  0.1 to 0.5 µM

Turning now to a further record.
Identify IC50 associated with the molecule CN(c1nc(OC[C@@]23CCCN2C[C@H](F)C3)nc2c(F)c(-c3cccc(Cl)c3C3CC3)ncc12)[C@@H]1CCN(C(=O)/C=C/CN2C[C@@H]3C[C@H]2CO3)C1 0.01 to 0.1 µM

* * *

// reported IC50 per item
target: KRAS G12C (GMPPNP-loaded) and cRAF Ras-binding domain (Homo sapiens, UniProt P01116, C118S/C51S/C80L/G12C); construct: truncated version comprising amino acids 1-169; test: Inhibition of KRAS G12C and cRAF binding (AlphaScreen); conditions: KRAS G12C preloaded with GTP analogue GMPPNP, 2 hours preincubation

                                   molecule  quantity_kind    data_value
0  Cc1nsc(/C=C/C(=O)N2CC[C@@H](N(C)c3nc(OC[C@@]45CCCN4C[C@H](F)C5)nc4c(F)c(-c5nc(N)cc(C)c5C(F)(F)F)ncc34)C2)n1           IC50  10 to 100 nM
1  C=CC(=O)N1CC[C@@H](N(C)c2nc(OC[C@@]34CCCN3C[C@H](F)C4)nc3c(F)c(-c4cccn5nccc45)ncc23)C1           IC50      ≥ 500 nM

Turning now to a further record.
Identify IC50 associated with the molecule Cc1cc(N)nc(-c2ncc3c(N(C)[C@@H]4CCN(C(=O)/C=C/[C@@H]5CCN5C)C4)nc(OC[C@@]45CCCN4C[C@H](F)C5)nc3c2F)c1C(F)(F)F [Example 83] < 10 nM

* * *

Target: KRAS G12C (GMPPNP-loaded) and cRAF Ras-binding domain (Homo sapiens, UniProt P01116, C118S/C51S/C80L/G12C)
Construct: truncated version comprising amino acids 1-169
Test: Inhibition of KRAS G12C and cRAF binding (AlphaScreen)
Conditions: KRAS G12C preloaded with GTP analogue GMPPNP, 2 hours preincubation
Description: The ability of compounds of Formula (A), Formula (B) and Formula (C), and pharmaceutically acceptable salts and/or isotopologues thereof, to inhibit activity of the GTP-bound form of KRAS G12C can be tested using methods such as the in vitro assay described in Example 179 below. Example 179 describes determining, for various compounds, the half-maximal inhibition (IC50) of KRAS G12C loaded with GTP analogue GMPPNP from binding to cRaf, as the Ras-binding domain (RBD). […]
pIC50: −log10 of the molar value.
QUANTITY KIND: pIC50

COMPOUND	pIC50
Cc1noc(/C=C/C(=O)N2CC[C@@H](N(C)c3nc(OCC45CCCN4CCC5)nc4c3C[C@H](C)[C@@H](c3nc(N)cc(C)c3C(F)(F)F)C4)C2)n1 (single isomer, unassigned)	7.00 to 8.00
C=CC(=O)N1CC[C@@H](N(C)c2nc(OC[C@@]34CCCN3C[C@H](F)C4)nc3c(F)c(-c4cncnc4C4CC4)ncc23)C1	≤ 6.30
C=CC(=O)N1CC[C@@H](N(C)c2nc(OC[C@@]34CCCN3C[C@H](F)C4)nc3c(F)c(-c4cc(N)nc(C)c4C(F)(F)F)ncc23)C1	7.00 to 8.00

Identify pIC50 associated with the compound Cc1noc(/C=C/C(=O)N2CC[C@@H](N(C)c3nc(OCC45CCCN4CCC5)nc4c3C[C@H](C)C(c3nc(N)cc(C)c3C(F)(F)F)C4)C2)n1 (stereo in doubt) 7.00 to 8.00

Identify pIC50 associated with the compound C=CC(=O)N1CC(CN(C)c2nc(OCC34CCCN3CCC4)nc3c2C[C@@H](C)[C@H](c2nc(N)cc(C)c2C(F)(F)F)C3)C1 ≤ 6.30

Identify pIC50 associated with the compound CN(CC1CN(C(=O)/C=C/c2nc(C(C)(C)O)no2)C1)c1nc(OC[C@@]23CCCN2C[C@H](F)C3)nc2c(F)c(-c3nc(N)cc4cccc(Cl)c34)ncc12 > 8.00

Identify pIC50 associated with the compound CN(c1nc(OC[C@@]23CCCN2C[C@H](F)C3)nc2c(F)c(-c3cccc(Cl)c3C3CC3)ncc12)[C@@H]1CCN(C(=O)/C=C/CN2C[C@H]3C[C@@H]2CO3)C1 7.00 to 8.00

Identify pIC50 associated with the compound C=CC(=O)N1CC[C@@H](N(C)c2nc(OC[C@@]34CCCN3C[C@H](F)C4)nc3c(F)c(-c4cc(F)cc(Cl)c4C4CC4)ncc23)C1 6.30 to 7.00

Identify pIC50 associated with the compound C=CC(=O)N1CCC(N(C)c2nc(OC[C@@]34CCCN3C[C@H](F)C4)nc3c(F)c(-c4n[nH]c5cccc(Cl)c45)ncc23)C1 (some centres unmarked) ≤ 6.30

Identify pIC50 associated with the compound C=CC(=O)N1CC[C@@H](N(C)c2nc(OC[C@@]34CCCN3C[C@H](F)C4)nc3c(F)c(-c4nc(N)cc5cccc(F)c45)ncc23)C1 7.00 to 8.00

Identify pIC50 associated with the compound CN(c1nc(OCC23CCCN2CCC3)nc2c(F)c(-c3nc(N)cc4cccc(F)c34)ncc12)[C@@H]1CCN(C#N)C1 6.30 to 7.00

* * *

target: KRAS G12C (GMPPNP-loaded) and cRAF Ras-binding domain (Homo sapiens, UniProt P01116, C118S/C51S/C80L/G12C); construct: truncated version comprising amino acids 1-169; assay: Inhibition of KRAS G12C and cRAF binding (AlphaScreen); details: KRAS G12C preloaded with GTP analogue GMPPNP, 2 hours preincubation
pIC50: −log10 of the molar value.
// reported pIC50 per item

COMPOUND	QUANTITY KIND	DATA VALUE
Cc1cc(N)nc(-c2ncc3c(N(C)[C@@H]4CCN(C(=O)/C=C/c5nc(C(C)C)no5)C4)nc(OC[C@@]45CCCN4C[C@H](F)C5)nc3c2F)c1C(F)(F)F	pIC50	> 8.00

Identify pIC50 associated with the compound C=CC(=O)N1CC[C@H](O)[C@@H](N(C)c2nc(OC[C@@]34CCCN3C[C@H](F)C4)nc3c(F)c(-c4cccc(Cl)c4C4CC4)ncc23)C1 ≤ 6.30
